Entries with reported IC50 on USP30 (Homo sapiens (Human))
Sequence (Q70CQ3 57-517): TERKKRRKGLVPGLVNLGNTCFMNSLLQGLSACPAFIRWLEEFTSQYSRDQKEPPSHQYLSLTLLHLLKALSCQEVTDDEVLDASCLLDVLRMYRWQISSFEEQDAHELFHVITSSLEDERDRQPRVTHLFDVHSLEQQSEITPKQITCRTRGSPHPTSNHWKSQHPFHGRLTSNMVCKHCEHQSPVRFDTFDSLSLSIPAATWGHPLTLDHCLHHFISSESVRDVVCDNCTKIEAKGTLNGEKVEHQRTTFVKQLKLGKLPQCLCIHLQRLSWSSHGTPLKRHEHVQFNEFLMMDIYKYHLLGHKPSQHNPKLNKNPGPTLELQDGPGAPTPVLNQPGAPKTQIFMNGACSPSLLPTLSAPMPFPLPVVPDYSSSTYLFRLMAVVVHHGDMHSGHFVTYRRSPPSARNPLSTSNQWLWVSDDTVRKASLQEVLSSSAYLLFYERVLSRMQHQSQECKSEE

A selection of reference data follows.
# molecule, target desc, result
rows = [
    ("N#CN1CCC(CC(=O)Nc2nnc(-c3ccccc3)s2)C1 (stereo not drawn)", "USP30 (Homo sapiens (Human))", "0.1 to 1 µM"),
    ("N#Cc1cccc(-c2cc(NC(=O)C[C@H]3CCN(C#N)C3)no2)c1", "USP30 (Homo sapiens (Human))", "0.001 to 0.01 µM"),
    ("N#CN1CCC(CC(=O)Nc2nc3cc(Cl)ccc3o2)C1 (stereo not drawn)", "USP30 (Homo sapiens (Human))", "0.1 to 1 µM"),
    ("N#CN1CCC(CC(=O)Nc2nc3ccc(Cl)cc3s2)C1 (stereo not drawn)", "USP30 (Homo sapiens (Human))", "0.1 to 1 µM"),
    ("COc1ccc(C2CN(C(=O)C[C@@H]3CCN(C#N)C3)C2)cc1-c1ccnn1C", "USP30 (Homo sapiens (Human))", "0.01 to 0.1 µM"),
]

Jot down IC50 (USP30 (Homo sapiens (Human))) of N#CN1CC[C@@H](CC(=O)Nc2nnc(-c3cccc(Cl)c3)o2)C1 . 0.1 to 1 µM

Identify measured IC50 obtained with USP30 (Homo sapiens (Human)) for COCCOc1ccc(C2CN(C(=O)C[C@@H]3CCN(C#N)C3)C2)cc1 . 1 to 10 µM
